System: LNCaP tumor-transplanted mouse
protocol_text: Internal radioactivity distribution using LNCaP tumor-transplanted mouse
Assay type: in vivo
test_parameters: 1 h after administration
observation_type: Stomach (% ID)
Quick note: unit goes after the number.

Below, 3 molecules whose answers are already recorded.
>  <molecule>
O=C([O-])CN(Cc1cccc(C(=O)[O-])n1)C[C@H](Cc1ccc(NC(=O)[C@H](CCCCNC(=O)CCC(=O)NCCCC[C@H](NC(=O)N[C@@H](CCC(=O)O)C(=O)O)C(=O)O)NC(=O)CCCc2ccc(I)cc2)cc1)N(CC(=O)[O-])Cc1cccc(C(=O)[O-])n1.[111In+3] [[^111In]In-Octapa-2]

>  <target_system>
LNCaP tumor-transplanted mouse

>  <observation_type>
Stomach (% ID)

>  <value_reported>
0.51 ± 0.22 % ID

$$$$
>  <molecule>
O=C([O-])CN(CCN(CCc1ccc(NC(=O)CCCCCNC(=O)CCC(=O)NCCCC[C@H](NC(=O)N[C@@H](CCC(=O)O)C(=O)O)C(=O)O)cc1)CCN(CC(=O)[O-])Cc1cccc(C(=O)[O-])n1)Cc1cccc(C(=O)[O-])n1.[111In+3] [[^111In]In-Neunpa-1, reference compound]

>  <target_system>
LNCaP tumor-transplanted mouse

>  <observation_type>
Stomach (% ID)

>  <value_reported>
0.17 ± 0.02 % ID

$$$$
>  <molecule>
O=C([O-])CN(CCN(CCc1ccc(NC(=O)[C@H](CCCCNC(=O)CCC(=O)NCCCC[C@H](NC(=O)N[C@@H](CCC(=O)O)C(=O)O)C(=O)O)NC(=O)CCCc2ccc(I)cc2)cc1)CCN(CC(=O)[O-])Cc1cccc(C(=O)[O-])n1)Cc1cccc(C(=O)[O-])n1.[111In+3] [[^111In]In-Neunpa-2]

>  <target_system>
LNCaP tumor-transplanted mouse

>  <observation_type>
Stomach (% ID)

>  <value_reported>
0.23 ± 0.06 % ID

$$$$

Record summary for O=C([O-])CN1CCN(C(CCC(=O)NCCCC[C@H](NC(=O)N[C@@H](CCC(=O)O)C(=O)O)C(=O)O)C(=O)[O-])CCN(CC(=O)[O-])CCN(C(CCC(=O)N[C@@H](CCCCNC(=O)CCCc2ccc(I)cc2)C(=O)O)C(=O)[O-])CC1.[111In+3] (stereo partly shown) [[^111In]In-PSMA-DA1] : reported Stomach (% ID) = 0.52 ± 0.02 % ID

---

Tested on: LNCaP tumor-transplanted mouse
protocol_text: Internal radioactivity distribution using LNCaP tumor-transplanted mouse
Assay type: in vivo
test_parameters: 4 h after administration
observation_type: Stomach (% ID)
Include the unit after the number when you answer.

Examples with answers:
>  <molecule>
O=C([O-])CN(Cc1cccc(C(=O)[O-])n1)C[C@H](Cc1ccc(NC(=O)[C@H](CCCCNC(=O)CCC(=O)NCCCC[C@H](NC(=O)N[C@@H](CCC(=O)O)C(=O)O)C(=O)O)NC(=O)CCCc2ccc(I)cc2)cc1)N(CC(=O)[O-])Cc1cccc(C(=O)[O-])n1.[111In+3] [[^111In]In-Octapa-2]

>  <value_reported>
0.23 ± 0.02 % ID

$$$$
>  <molecule>
O=C([O-])CN1CCN(C(CCC(=O)NCCCC[C@H](NC(=O)N[C@@H](CCC(=O)O)C(=O)O)C(=O)O)C(=O)[O-])CCN(CC(=O)[O-])CCN(C(CCC(=O)Nc2ccccc2)C(=O)[O-])CC1.[111In+3] (stereo partly shown) [[^111In]In-PSMA-DB, reference compound]

>  <value_reported>
0.13 ± 0.03 % ID

$$$$
>  <molecule>
O=C([O-])CN1CCN(C(CCC(=O)NCCCC[C@H](NC(=O)N[C@@H](CCC(=O)O)C(=O)O)C(=O)O)C(=O)[O-])CCN(CC(=O)[O-])CCN(C(CCC(=O)N[C@@H](CCCCNC(=O)CCCc2ccc(I)cc2)C(=O)O)C(=O)[O-])CC1.[111In+3] (stereo partly shown) [[^111In]In-PSMA-DA1]

>  <value_reported>
0.51 ± 0.05 % ID

$$$$

The reported Stomach (% ID) of the molecule O=C([O-])CN(CCN(CCc1ccc(NC(=O)CCCCCNC(=O)CCC(=O)NCCCC[C@H](NC(=O)N[C@@H](CCC(=O)O)C(=O)O)C(=O)O)cc1)CCN(CC(=O)[O-])Cc1cccc(C(=O)[O-])n1)Cc1cccc(C(=O)[O-])n1.[111In+3] [[^111In]In-Neunpa-1, reference compound] was 0.11 ± 0.03 % ID
